Catalogue of sequences with associated apparent KD of MS2 coat protein
Tested on: MS2 coat protein
Assay: apparent KD of MS2 coat protein; designed switch direction (-1 OFF switch, 1 ON switch): -1; higher = weaker reporter binding
Conditions: Eterna round: R95; input ligand: microRNA oligo, concentration not stated
The reply should contain only the number, in nM.

Examples with answers:
INSERT INTO results (sequence_string, unit_descriptor, reported_result) VALUES
  ('ACGUGAUAUCUGUCGGUGGACAUGAGGAUCACCCAUGUAAGCUUUUUGCUCAUCUUAUAACCCGGUGACAGACCUUC [Zaisbela] (puzzle: Sensor v3, turn-off variant 1)', 'nM', 413),
  ('UUAUACGUUGAGGAUAUGCGACUGUUUUAAGUUGUAGAAGGCGAUACAUGAGGAUCACCCAUGUUUAUGGGCAU [LRO-Ex6-12] (puzzle: Exclusion 6)', 'nM', 169);

What does the record list as apparent KD of MS2 coat protein for CCCUCACAUGAGGAUCACCCAUGUCAGGAUAUUCGGCGGUCAAUUGACCGCCUUAAAGGAAGAAGGGACGUAAA [Masore] (puzzle: Exclusion 1) ? 11.8

What does the record list as apparent KD of MS2 coat protein for CAAAAGGUAGGAUAUACGAAAAAAAAGGGUAGAAAAAAAACACAUGAGGAUCACCCAUGUAGAAGGACCAAAAG [salish99_ex2_r3_053] (puzzle: Exclusion 2) ? 24.9

What does the record list as apparent KD of MS2 coat protein for CUCUUGUUAGGAUAUCAAACCAGUGACGGAACCACUGGAAGUGAGAAGGGACAUGAGGAUCACCCAUGUAAGAA [Edraate] (puzzle: Exclusion 4) ? 52.3

What does the record list as apparent KD of MS2 coat protein for AAUGUCUGAGGAUAUCGUUUUUUGUACAUGAGGAUCACCCAUGUUUUAUUUUGUAUAUUACGAGAAGGCAGUGGAA [JR_E5_Sub088] (puzzle: Exclusion 5) ? 22.7

What does the record list as apparent KD of MS2 coat protein for AGAUGGCGAGGAUAUACAUGAGGAUCACCCAUGUGAGAGAAUAAAGUGAGGAAGAAAAGUAGAAGGCGCUGUCA [Mat - Exclusion 3 - Mod of Salish D10] (puzzle: Exclusion 3) ? 43.3

What does the record list as apparent KD of MS2 coat protein for AAAUAAUAGAUAAAAUAAAACAUGAGGAUCACCCAUGUGGGAUGAUGAGGGUGAAACAAGCUUUUUGCUCGUCUUAU (puzzle: Sensor v3, turn-off variant 1) ? 919

What does the record list as apparent KD of MS2 coat protein for UUUUUUGUUGUGAGGAUAUCGUAUUUUUUUUGUUACGAGAAGGCACAUGAGGAUCACCCAUGUUUCUUGAUGUU [JR_BMOE4_Sub066] (puzzle: Brourd's mod of Exclusion 4) ? 16.8

What does the record list as apparent KD of MS2 coat protein for CUUUUGUGAGGAUAUUAGUAGUAAAUAAAUUAAAUUACUACUGAGAAGGCACAUGAGGAUCACCCAUGUUCCUC [salish99_ex4_r3_057] (puzzle: Exclusion 4) ? 32

What does the record list as apparent KD of MS2 coat protein for GAUCCACAUGAGGAUCACCCAUGUGAGGAUAUGAUACUAUGUACUUCGGUACAUAGUAUCAGAAGGCACAGGUC [Ex1-3: 56] (puzzle: Exclusion 1) ? 50.6

What does the record list as apparent KD of MS2 coat protein for AAGUACCGUCACGAUAGUGAUGGUACAACAAGCAGUGAAACAUGAGGAUCACCCAUGUCCUCAAUUGCUCGUCUUAU [Sensor 3 - 74] (puzzle: Sensor v3, turn-off variant 2) ? 195

What does the record list as apparent KD of MS2 coat protein for GCAGGCGUCUAGGCUCGUCUUAUUUUGAGAGGAUUGAUAACAUGAGGAUCACCCAUGUUUGUGGGAGAGUUGCAGUG [JR_SV3TOV2_Sub015] (puzzle: Sensor v3, turn-off variant 2) ? 241

All values here come from the supplement of paper PMC9170038.
